Recorded values, source ChEMBL document CHEMBL3988442.

Entries and their Percent Effect values follow.
test system: Wolbachia pipientis; experiment: Anti-Wolbachia Cell-Based Screen; assay type: functional; parameters: scale not given: in the data most compounds retested in dose-response had high values; settings: 5 µM
About 13,000 (27%) of roughly 48,000 compounds showed an effect of 50% or more. Some of the results follow.
The reply should be a number in %, with the unit left off.

// known answers, use as guide
O=C([C@H]1C[C@@H]2CN(c3ncc(F)cn3)C[C@H]1O2)N1CCOCC1 | 99.35
COCc1cc(NCc2cc(F)ccc2F)n2nccc2n1 | 7.154
COc1ccccc1CNC(Cn1cncn1)c1ccccc1 (stereo not given) | -4.346
COc1ccc(NC(=O)CCn2nc(-c3cccs3)oc2=O)cc1OC | 106
O=C(C1CCCC1)N1C[C@@H]2CCN(c3cnccn3)C[C@@H]2C1.O=C(O)C(F)(F)F | 80.73

Below: the item to evaluate.
Notebook: `Cc1nsc(NCc2ccc(CS(=O)(=O)NC(C)C)cc2)n1` , Percent Effect read as -12.57

* * *

test system: Wolbachia pipientis; experiment: Anti-Wolbachia Cell-Based Screen; assay type: functional; set-up: scale not given: in the data most compounds retested in dose-response had high values; conditions: 5 µM
Among all 48,000 compounds or so, about 13,000 (27%) showed an effect of 50% or more. This is one part of the list.
Entries and their Percent Effect values follow.
The reply should be a number in %, with the unit left off.

// known answers, use as guide
CN(C)S(=O)(=O)NCc1cccnc1Oc1ccc(F)c(F)c1 | -7.83
Cc1cc(=O)n2nc(Oc3ccc(Cl)c(C)c3)sc2n1 | 81.92
CCOCCN1CCN(CC(=O)N2CCCC2)CC1CC (centres undefined) | 98.08

Record for CCOCCN1CCN(Cc2nc(C)no2)CC1CC (centres undefined) under target or system Wolbachia pipientis: Percent Effect reported as -13.77

* * *

system: Wolbachia pipientis; assay: Anti-Wolbachia Cell-Based Screen; assay type: functional; design: scale not given: in the data most compounds retested in dose-response had high values; details: 5 µM
In all, about 48,000 compounds went through this assay and about 13,000 (27%) showed an effect of 50% or more. The list shows a part of the results.
Entries and their Percent Effect values follow.
Answer format reminder: number followed by unit.

O=C(Cc1ccccn1)N1CCC2(CC1)CN(c1ccccn1)CCO2 | 1.035%
CN1CCCN(CCCNC2CCc3cc4c(cc32)OCCO4)CC1 (centres undefined) | -2.164%
Cl.NCC1CCCCN1C(=O)Cc1cccc(Cl)c1 (centres undefined) | -19.94%

Below: the item to evaluate.
Record for `NCCC(=O)N1CCC2(CC1)CN(C(=O)Cc1ccc(Cl)cc1)CCO2` under target or system Wolbachia pipientis: Percent Effect reported as 115.1%

* * *

system: Wolbachia pipientis; assay: Anti-Wolbachia Cell-Based Screen; assay type: functional; parameters: scale not given: in the data most compounds retested in dose-response had high values; conditions: 5 µM
In all, about 48,000 compounds went through this assay and about 13,000 (27%) showed an effect of 50% or more. The list shows a part of the results.
RECORDED METRIC: Percent Effect

// known answers, use as guide
O=C(O)c1csc(S(=O)(=O)N2CCN(Cc3ccc(Cl)cc3)CC2)c1 | 3.67%
COc1ccc(F)c(CN2CCCC(O)(CNC3CCCCC3)C2=O)c1 (configuration not stated) | -6.817%
O=c1cc(-c2cccnc2)nc(-c2ccc(CN3CC[C@@H](O)C3)cc2)[nH]1 | 3.03%
CN(Cc1ccco1)C(=O)C1CSCN1C(=O)C1CCC1 (configuration not stated) | 111.9%
CN(Cc1ccco1)C(=O)[C@H]1CSCN1C(=O)OC(C)(C)C | 12.78%

Record for `CCN(CC)Cc1nc(Cc2cccc(C(F)(F)F)c2)no1` under target or system Wolbachia pipientis: Percent Effect reported as 107.6%

Record for `CN(C)C(=O)COC[C@]12COC[C@H]1CN(C1CCCC1)C2.O=C(O)C(F)(F)F` under target or system Wolbachia pipientis: Percent Effect reported as 91.16%

Record for `CN(CCc1ccccc1)Cc1nc(Cc2cccc(F)c2)no1` under target or system Wolbachia pipientis: Percent Effect reported as -15.79%

Record for `N#Cc1ccccc1C(=O)N1C[C@H]2CC[C@@H]1CN(Cc1ccccc1)C2` under target or system Wolbachia pipientis: Percent Effect reported as 1.705%

Record for `CCn1ccnc1CN(C)Cc1nc(Cc2cccc(F)c2)no1` under target or system Wolbachia pipientis: Percent Effect reported as 17.71%

Record for `CN(CCc1cn[nH]c1)Cc1nc(Cc2cccc(C(F)(F)F)c2)no1` under target or system Wolbachia pipientis: Percent Effect reported as -3.312%

Record for CN(Cc1ccco1)C(=O)C1CSCN1C(=O)c1cccnc1 (configuration not stated) under target or system Wolbachia pipientis: Percent Effect reported as 0.06211%

Record for CSCC(C)(O)CNC(=O)c1cccc(Cl)c1Cl (configuration not stated) under target or system Wolbachia pipientis: Percent Effect reported as -18.01%

* * *

system: Wolbachia pipientis; experiment: Anti-Wolbachia Cell-Based Screen; type: functional; set-up: scale not given: in the data most compounds retested in dose-response had high values; settings: 5 µM
The campaign covered roughly 48,000 compounds. About 13,000 (27%) showed an effect of 50% or more. Some of the results follow.
RECORDED METRIC: Percent Effect (%)
The reply should be a number in %, with the unit left off.

// known answers, use as guide
O=C(CCSc1ccccc1)NCC1CCN(Cc2ccsc2)CC1 | 78.72
CC(=O)N1CCC(NCc2cccnc2N(C)Cc2ccccc2)CC1 | -20.17

Notebook: `O=C(COc1ccccc1)NCC1CCN(Cc2ccsc2)CC1` , Percent Effect read as 115.8

Notebook: `CC(=O)N1CCC(n2nccc2-c2cnc(N(C)CCO)nc2)CC1` , Percent Effect read as 107.1

Notebook: `COCC(=O)NCC1CCN(Cc2ccsc2)CC1` , Percent Effect read as 155

Notebook: `CO[C@H]1CN(Cc2cc(F)ccc2F)CC[C@@]12CCCO2` , Percent Effect read as 118.4

Notebook: `COCCNC(=O)CCC1CCN(Cc2cccc(SC)c2)CC1` , Percent Effect read as 4.456

* * *

Entries and their Percent Effect values follow.
test system: Wolbachia pipientis; experiment: Anti-Wolbachia Cell-Based Screen; assay type: functional; set-up: scale not given: in the data most compounds retested in dose-response had high values; settings: 5 µM
The campaign covered roughly 48,000 compounds. About 13,000 (27%) showed an effect of 50% or more. The list shows a part of the results.
The reply should be a number in %, with the unit left off.

CC(C)c1noc(CCC(=O)NCC2CCOC2)n1 (stereo unspecified) | 7.119
CCCc1ccc(OC23CCCN(CC2)C3)c(OC)c1 (stereo unspecified) | 112.6
CC(=O)NCCNC(=O)NCC1Cc2ccccc2O1 (stereo unspecified) | 101.6
CCCc1ccc(OCCNCc2ccco2)c(OC)c1.Cl | -10.12

Notebook: COc1ccc(OC)c(CCNC(=O)CCC2CCCO2)c1 (stereo unspecified) , Percent Effect read as 18.05

Notebook: `COCCN1CCCc2sc(C(=O)Nc3ccc(C)nc3)nc21.O=C(O)C(F)(F)F` , Percent Effect read as 8.218

* * *

test system: Wolbachia pipientis; assay: Anti-Wolbachia Cell-Based Screen; assay type: functional; set-up: scale not given: in the data most compounds retested in dose-response had high values; details: 5 µM
Among all 48,000 compounds or so, about 13,000 (27%) showed an effect of 50% or more. The list shows a part of the results.
RECORDED METRIC: Percent Effect (%)
The reply should be a number in %, with the unit left off.

OCCOCc1n[nH]c2c1CN(Cc1cccs1)C2 | -8.945
O=C(c1cccnc1)N1CCc2[nH]nc(Nc3ccccc3)c2C1 | 125.3
Cc1nc(C(=O)N2CCc3[nH]nc(Nc4ccccc4)c3C2)co1 | 140.3
Cn1ccc(C(=O)N2CCc3[nH]nc(Nc4ccccc4)c3C2)n1 | 131.4
O=C1NCCCCC1NC(=O)C1(Oc2ccc(Cl)cc2)CCNCC1 (stereo not drawn) | 4.291

Below: the item to evaluate.
Notebook: CCc1ccc(C(NC(=O)CN(C)S(C)(=O)=O)C(C)(C)C)o1 (stereo not drawn) , Percent Effect read as -2.175

* * *

Entries and their Percent Effect values follow.
system: Wolbachia pipientis; assay: Anti-Wolbachia Cell-Based Screen; format: functional; design: scale not given: in the data most compounds retested in dose-response had high values; conditions: 5 µM
Screen size: about 48,000 compounds; about 13,000 (27%) showed an effect of 50% or more. This is one part of the list.
The reply should be a number in %, with the unit left off.

O=C(Cc1cccc(F)c1)NCCNCc1cccnc1 | 96.05
c1ccc(CCCN2CCCC2Cn2cncn2)cc1 (configuration not stated) | 145.7
CCCS(=O)(=O)c1ccc(N2CCN(c3ccccn3)CC2)nn1 | 2.245

Notebook: CCOCc1cnc2n1CCN(Cc1scnc1C)C2C.O=C(O)C(F)(F)F (configuration not stated) , Percent Effect read as -10.4

Notebook: CSc1ccsc1C(=O)NC(Cc1ccccc1)C(N)=O (configuration not stated) , Percent Effect read as -23.55

Notebook: c1csc(-c2noc(CCCN3CCCC3Cn3cccn3)n2)c1 (configuration not stated) , Percent Effect read as -9.384

Notebook: Cc1cnn(C(C)C2CC2)c1NC(=O)c1cnccn1 (configuration not stated) , Percent Effect read as 2.38
